# Tested on: OVCAR-8 ovarian
# ASSAY_INFO: NCI-60 one-dose screen, 48 h (100 = growth as untreated, 0 = no growth, -100 = all killed)
# DETAILS: 10 µM unless noted
About 83,000 compounds went through this panel and 20% of them were active in at least one assay; those are over-represented in the sample as a whole.
Label rule, in plain words: growth of 30% and up is t, under 30% is f.

{"COMPOUND": "CC(N)C(Cc1ccc(Cl)cc1)c1ccc(Cl)cc1 (stereo unspecified)", "LABEL_VALUE": "t"}
{"COMPOUND": "CCc1nc2ccc(Cc3ccc(C(=O)NO)cc3)cc2c(=O)n1CCc1ccccc1", "LABEL_VALUE": "f"}
{"COMPOUND": "O=C1C=CC2(NN=C(c3ccccc3)N2c2cccc(Cl)c2)C(Cl)=C1 (stereo unspecified)", "LABEL_VALUE": "t"}
{"COMPOUND": "CC(=O)OC(C(=O)c1ccccc1)c1ccccc1 (stereo unspecified)", "LABEL_VALUE": "t"}
{"COMPOUND": "Cn1cc(-c2ncnc3ccc(-c4cnc(Cl)c(NS(C)(=O)=O)c4)cc23)c2ccccc21", "LABEL_VALUE": "t"}
{"COMPOUND": "O=C(CNc1nnc(-c2ccc(Cl)cc2)o1)Nc1ccc(-c2nc3ccccc3s2)cc1", "LABEL_VALUE": "t"}
{"COMPOUND": "CSc1nc2ncnc(SC)c2[nH]1", "LABEL_VALUE": "t"}
{"COMPOUND": "CCc1ccc(/C=C/c2ccc(O)c3ncccc23)[n+](C)c1", "LABEL_VALUE": "f"}
{"COMPOUND": "Cc1ccc(C(=O)Nc2ccc(CN3CCN(C)CC3)c(C(F)(F)F)c2)cc1C#Cc1cnc2cccnn12", "LABEL_VALUE": "f"}
{"COMPOUND": "COc1ccc(-c2nocc2-c2cc(OC)c(OC)c(OC)c2)cc1", "LABEL_VALUE": "f"}
{"COMPOUND": "CC(=Nc1ccccc1)C1=C(O)C(Cc2ccc(O)cc2)NC1=O (stereo unspecified)", "LABEL_VALUE": "f"}
